- Test system: Stellaria media
- methodDescription: Post-emergence herbicidal action against STEME
- Assay type: in vivo
- protocolConditions: 80 g/ha, visual assessment about 3 weeks after treatment
- Procedure: Seeds of monocotyledonous and dicotyledonous weed and crop plants are laid out in sandy loam soil in wood-fiber pots, covered with soil and cultivated in a greenhouse under good growth conditions. 2 to 3 weeks after sowing, the test plants are treated at the one-leaf stage. […]
Could you please report measured Post-emergence action against STEME in % for the items listed next?
One number for each entry, in %.

Sample answers from the record:
| compound | reportedMeasurement |
| --- | --- |
| CCn1nnnc1NC(=O)c1ccc(C(F)(F)F)c(C(=O)N2CCCC2)c1Cl [Example 2-152] | 90 |
| CCCn1nnnc1NC(=O)c1ccc(C(F)(F)F)c(C(=O)N(C)CC2CC2)c1Cl [Example 3-126] | 100 |
| CCN(C)C(=O)c1c(C(F)(F)F)ccc(C(=O)Nc2nnnn2C)c1Cl [Example 1-124] | 100 |
| CN(C)C(=O)c1c(C(F)(F)F)ccc(C(=O)Nc2nnnn2C)c1Cl [Example 1-123] | 100 |
| Cn1nnnc1NC(=O)c1ccc(C(F)(F)F)c(C(=O)n2cccn2)c1Cl [Example 1-153] | 100 |

// next entry
Post-emergence action against STEME in % measured on CCCn1nnnc1NC(=O)c1ccc(C(F)(F)F)c(C(=O)n2cccn2)c1Cl [Example 3-153] = 100

* * *

- System: Alopecurus myosuroides
- methodDescription: Post-emergence herbicidal action against ALOMY
- Type: in vivo
- protocolConditions: 80 g/ha
readout: Post-emergence action against ALOMY (%)
Numbers only, in %.

Give Post-emergence action against ALOMY for each listed item.
1. CCCn1nnnc1NC(=O)c1ccc(C(F)(F)F)c(C(=O)N(C)C)c1Cl
2. Cn1nnnc1NC(=O)c1ccc(C(F)(F)F)c(C(=O)n2cccn2)c1Cl
3. CCCn1nnnc1NC(=O)c1ccc(C(F)(F)F)c(C(=O)N(C)CC)c1Cl
4. Cn1nnnc1NC(=O)c1ccc(C(F)(F)F)c(C(=O)N2CCCC2)c1Cl
5. CN(CC1CC1)C(=O)c1c(C(F)(F)F)ccc(C(=O)Nc2nnnn2C)c1Cl
6. CCn1nnnc1NC(=O)c1ccc(C(F)(F)F)c(C(=O)N(C)CC2CC2)c1Cl
7. CCn1nnnc1NC(=O)c1ccc(C(F)(F)F)c(C(=O)n2cccn2)c1Cl
8. CN(C(=O)c1c(Cl)ccc(C(=O)Nc2nnnn2C)c1Cl)c1ccccc1

[100, 90, 100, 90, 100, 100, 90, 100]

* * *

- Test system: Pharbitis purpurea
- methodDescription: Post-emergence herbicidal action against PHBPU
- Assay type: in vivo
- protocolConditions: 80 g/ha, visual assessment about 3 weeks after treatment
readout: Post-emergence action against PHBPU in % (%)
One number for each entry, in %.

Sample answers from the record:
| chemSmiles | Post-emergence action against PHBPU in %, % |
| --- | --- |
| Cc1ccccc1N(C)C(=O)c1c(Cl)ccc(C(=O)Nc2nnnn2C)c1Cl | 90 |
| CCN(C)C(=O)c1c(C(F)(F)F)ccc(C(=O)Nc2nnnn2C)c1Cl | 90 |
| CN(C)C(=O)c1c(C(F)(F)F)ccc(C(=O)Nc2nnnn2C)c1Cl | 100 |
| CCn1nnnc1NC(=O)c1ccc(C(F)(F)F)c(C(=O)N(C)C)c1Cl | 100 |

Give Post-emergence action against PHBPU in % for each listed item.
1. CCCn1nnnc1NC(=O)c1ccc(C(F)(F)F)c(C(=O)n2cccn2)c1Cl
2. CN(C(=O)c1c(Cl)ccc(C(=O)Nc2nnnn2C)c1Cl)c1ccccc1
3. CCCn1nnnc1NC(=O)c1ccc(C(F)(F)F)c(C(=O)N(C)C)c1Cl

[90, 80, 90]

// provenance: patent US12599136B2
